Where do these numbers come from? They come from patent US12612380B2.

Target Entity: GBA2 (Homo sapiens)
Sequence (Q9HCG7 whole entry): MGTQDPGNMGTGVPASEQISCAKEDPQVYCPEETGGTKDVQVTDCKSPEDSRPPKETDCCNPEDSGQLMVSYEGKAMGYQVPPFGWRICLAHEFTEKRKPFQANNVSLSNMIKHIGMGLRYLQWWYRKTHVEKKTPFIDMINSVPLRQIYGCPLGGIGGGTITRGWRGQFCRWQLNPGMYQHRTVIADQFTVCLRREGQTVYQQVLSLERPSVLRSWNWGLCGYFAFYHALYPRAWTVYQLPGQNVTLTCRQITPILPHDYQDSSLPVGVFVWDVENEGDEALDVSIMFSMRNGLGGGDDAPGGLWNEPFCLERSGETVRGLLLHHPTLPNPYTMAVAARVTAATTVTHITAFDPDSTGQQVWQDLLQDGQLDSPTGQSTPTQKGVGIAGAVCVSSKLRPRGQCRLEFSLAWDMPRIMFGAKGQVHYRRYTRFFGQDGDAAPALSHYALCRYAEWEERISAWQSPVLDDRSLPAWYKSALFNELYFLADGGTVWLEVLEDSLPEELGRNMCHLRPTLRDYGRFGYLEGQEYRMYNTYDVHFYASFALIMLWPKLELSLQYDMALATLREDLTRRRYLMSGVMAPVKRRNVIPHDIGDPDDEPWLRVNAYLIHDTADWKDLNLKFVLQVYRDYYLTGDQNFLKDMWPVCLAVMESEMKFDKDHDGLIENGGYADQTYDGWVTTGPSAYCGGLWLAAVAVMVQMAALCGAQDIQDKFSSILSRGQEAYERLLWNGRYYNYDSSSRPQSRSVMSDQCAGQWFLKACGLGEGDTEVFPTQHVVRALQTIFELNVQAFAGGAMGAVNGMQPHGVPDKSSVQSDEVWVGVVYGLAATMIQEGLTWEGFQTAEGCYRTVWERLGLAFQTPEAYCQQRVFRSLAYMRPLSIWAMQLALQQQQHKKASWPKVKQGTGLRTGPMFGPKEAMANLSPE
Experiment: Determination of IC50 values for inhibition of GBA2 in cell lysate
Type: biochemical
Parameters: host or cells: HEK293T (lentiviral transduction, puromycin selection); used as cellular homogenate
Test Settings: cellular homogenate of HEK293T cells overexpressing human GBA2, 250 μM 4-methylumbelliferone-β-D glucopyranoside, pH 5.5, 37° C., GCase inhibitor present; read-out: GBA2 IC50
Measurement Type: IC50

{"columns": ["Smiles Str", "Target Entity", "Measurement Type", "Result"],
 "data": [
  ["C[C@@H]1[C@@H](O)[C@H](O)[C@@H](O)CN1C[C@H]1CCC[C@@H](C(F)(F)F)C1", "GBA2 (Homo sapiens)", "IC50", "100 to 1000 nM"],
  ["C[C@@H]1[C@@H](O)[C@H](O)[C@@H](O)CN1C[C@H]1CC[C@]2(CC1)COC(C)(C)C2", "GBA2 (Homo sapiens)", "IC50", "100 to 1000 nM"],
  ["CC(C)[C@H]1CC[C@@H](CN2C[C@H](O)[C@@H](O)[C@H](O)[C@H]2C)CC1", "GBA2 (Homo sapiens)", "IC50", "< 100 nM"]
]}

Moving on to another compound below.
I'd like to know its IC50. The compound in question is C[C@@H]1[C@@H](O)[C@H](O)[C@@H](O)CN1CC1CCC2(CCC2)CC1 < 100 nM
